biological target: HCV polymerase (Hepatitis C virus genotype 1b, UniProt P26663); construct: a region encoding NS5B (J Virol 1991 March, 65(3), 1105-13, 544 amino acids after deletion of 47 amino acids on the C-terminal); 6xHis (C); made in house; host or cells: Escherichia coli; assay: biochemical; design: species or system HCV BK strain
Sequence (P26663 2420-2963): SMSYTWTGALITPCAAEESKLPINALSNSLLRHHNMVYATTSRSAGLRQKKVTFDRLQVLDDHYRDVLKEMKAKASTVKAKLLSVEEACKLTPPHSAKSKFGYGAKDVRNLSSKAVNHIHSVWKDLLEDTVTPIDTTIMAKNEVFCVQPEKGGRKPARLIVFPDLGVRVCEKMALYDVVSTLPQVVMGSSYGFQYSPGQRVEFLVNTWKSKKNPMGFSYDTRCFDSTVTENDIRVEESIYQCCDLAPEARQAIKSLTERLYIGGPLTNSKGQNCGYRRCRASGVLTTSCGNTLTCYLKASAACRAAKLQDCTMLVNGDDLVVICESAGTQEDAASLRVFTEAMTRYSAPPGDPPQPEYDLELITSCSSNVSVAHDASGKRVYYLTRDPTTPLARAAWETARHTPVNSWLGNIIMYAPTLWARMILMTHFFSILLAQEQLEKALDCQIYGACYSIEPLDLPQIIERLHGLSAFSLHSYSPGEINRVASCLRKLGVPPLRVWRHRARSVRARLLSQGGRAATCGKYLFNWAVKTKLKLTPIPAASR
Structures can show the parent of a compound that is named as a salt.
Reported IC50 values follow for various compounds

# compound, endpoint, recorded_value
rows = [
    ("CN(C)C(=O)CN1CCn2c(c(C3CCCCC3)c3ccc(C(=O)O)cc32)-c2ccccc21", "IC50", "< 100 nM"),
    ("O=C(O)c1ccc2c(C3CCCCC3)c3n(c2c1)CCN(CC(=O)N1CCCC(O)C1)c1ccccc1-3 (stereo not shown) [Example 1-106, monohydrochloride]", "IC50", "< 100 nM"),
    ("O=C(O)c1ccc2c(C3CCCCC3)c3n(c2c1)CCN(CC(=O)N1CCCOCC1)c1ccccc1-3 [Example 1-49, monohydrochloride]", "IC50", "< 100 nM"),
    ("CC(C)(NC(=O)c1ccc2c(C3CCCCC3)c3n(c2c1)CCOc1ccccc1-3)c1ccc(O)cc1", "IC50", "< 100 nM"),
    ("COc1ccc2c(c1)OCCn1c-2c(C2CCCCC2)c2ccc(C(=O)N[C@@H](Cc3ccc(N)cc3)c3csc(C)n3)cc21", "IC50", "< 100 nM"),
]

Return value of IC50 for input CCCN(CCN1CCCCC1)c1cccc2c1OCCn1c-2c(C2CCCCC2)c2ccc(C(=O)NC(C)(C)C(=O)O)cc21 , no commentary. < 100 nM

Report measured IC50; entry is COc1ccc2c(c1)OCCn1c-2c(C2CCCCC2)c2ccc(C(=O)NC(C)(C)c3ccc(CCC(=O)O)cc3)cc21 < 100 nM

----------
molecular target: HCV polymerase (Hepatitis C virus genotype 1b); construct: a region encoding NS5B (J Virol 1991 March, 65(3), 1105-13, 544 amino acids after deletion of 47 amino acids on the C-terminal); 6xHis (C); made in house; host or cells: Escherichia coli; test: biochemical; design: species or system HCV BK strain; conditions: 25° C., 90 min; [5,6-3H]UTP incorporation into RNA; read-out: HCV polymerase inhibitory activity IC50
pIC50: −log10 of the molar value. Structures can show the parent of a compound that is named as a salt.
endpoint: pIC50

// below: answered molecules
# molecule, pIC50
measured = [
    ("CCC1CCCN(CCN2CCn3c(c(C4CCCC4)c4ccc(C(=O)O)cc43)-c3ccc(Cl)cc32)C1 (stereo not drawn)", "> 7.00"),
    ("COC(=O)C(Cc1ccc(O)cc1)NC(=O)c1ccc2c(C3CCCCC3)c3n(c2c1)CCN(C)c1cc(C)ccc1-3 (stereo not drawn)", "> 7.00"),
]

From here, focus on the item given below.
Answer with the recorded pIC50 for the molecule listed here: CC(C)COc1ccc2c(c1)N(CCN1CCCCC1)CCn1c-2c(C2CCCCC2)c2ccc(C(=O)O)cc21 [Example 1-373, dihydrochloride] > 7.00

----------
Molecular target: HCV polymerase (Hepatitis C virus genotype 1b, UniProt P26663)
Construct: a region encoding NS5B (J Virol 1991 March, 65(3), 1105-13, 544 amino acids after deletion of 47 amino acids on the C-terminal); 6xHis (C); made in house; host or cells: Escherichia coli
Experiment: biochemical
Set-up: species or system HCV BK strain
Description: The evaluation of the HCV polymerase inhibitory activity of the compound of the present invention is explained in the following. […] 10% Trichloroacetic acid at 4° C. and 1% sodium pyrophosphate solution (150 μl) were added to this reaction mixture to stop the reaction. […] A liquid scintillation cocktail (Packard) was added and the radioactivity of RNA synthesized by the enzyme reaction was measured on a liquid scintillation counter. […]
pIC50: −log10 of the molar value. Counter-ions that a name gives are not always drawn.
endpoint: pIC50

These recorded examples may help you get a feel for the data.
# molecule, pIC50
data = [
    ("COC(=O)c1ccc2nc(C(C)(C)NC(=O)c3ccc4c(C5CCCCC5)c5n(c4c3)CCOc3ccccc3-5)[nH]c2c1 [Example 2-196]", "> 7.00"),
    ("O=C(O)c1ccc2c(C3CCCCC3)c3n(c2c1)CCN(CCN1CCCCC1)c1c(F)cccc1-3 [Example 1-149, dihydrochloride]", "> 7.00"),
    ("CCOCC[C@@H]1CCCN(CCN2CCn3c(c(C4CCCCC4)c4ccc(C(=O)O)cc43)-c3ccc(OCC)cc32)C1 [Example 1-515, dihydrochloride]", "> 7.00"),
    ("CN(C)CCN(C)CCN1CCn2c(c(C3CCCCC3)c3ccc(C(=O)O)cc32)-c2ccccc21 [Example 1-223, trihydrochloride]", "> 7.00"),
]

Quote pIC50 with test system HCV polymerase (Hepatitis C virus genotype 1b, UniProt P26663) for O=C(O)c1ccc2c(C3CCCCC3)c3n(c2c1)CCN(Cc1cccnc1)c1ccccc1-3 [Example 1-135, dihydrochloride] > 7.00

Look up and report pIC50, with HCV polymerase (Hepatitis C virus genotype 1b, UniProt P26663) as system, for NC(=O)c1ccc2c(c1)N(CCN1CCCCC1)CCn1c-2c(C2CCCCC2)c2ccc(C(=O)O)cc21 [Example 1-491, monohydrochloride] > 7.00

Enter pIC50 (test system HCV polymerase (Hepatitis C virus genotype 1b, UniProt P26663)) for CC(C)N1CCCC(OCCN2CCn3c(c(C4CCCCC4)c4ccc(C(=O)O)cc43)-c3ccc(Cl)cc32)C1 (stereo not shown) [Example 1-371] > 7.00
